# runDescription: Plasma protein binding in human assessed as unbound fraction at 1 uM
# Format: ADME, cell-free
measuredQuantity: fraction unbound at 1 µM

1. CNC(=O)C(=O)[C@H](CCC(C)(F)F)NC(=O)[C@@H]1[C@H]2CCC[C@H]2CN1C(=O)[C@@H](NC(=O)OC)C(C)(C)C    0.27

###

# testedTarget: Nuclear receptor subfamily 1 group I member 2 (Homo sapiens, UniProt O75469)
# Sequence (O75469 whole entry): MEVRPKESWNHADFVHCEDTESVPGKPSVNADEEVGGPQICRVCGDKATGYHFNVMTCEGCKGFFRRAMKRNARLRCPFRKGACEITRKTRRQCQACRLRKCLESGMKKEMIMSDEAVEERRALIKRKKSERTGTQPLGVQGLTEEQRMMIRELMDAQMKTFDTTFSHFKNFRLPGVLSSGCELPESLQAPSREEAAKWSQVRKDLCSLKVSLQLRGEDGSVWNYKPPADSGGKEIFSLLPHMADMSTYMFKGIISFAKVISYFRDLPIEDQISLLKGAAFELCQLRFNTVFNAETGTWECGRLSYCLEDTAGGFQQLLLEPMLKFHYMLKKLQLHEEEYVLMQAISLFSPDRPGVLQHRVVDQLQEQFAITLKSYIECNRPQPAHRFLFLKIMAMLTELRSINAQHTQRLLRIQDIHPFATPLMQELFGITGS
# runDescription: Activation of PXR (unknown origin)
measuredQuantity: EC50

1) CNC(=O)C(=O)[C@H](CCC(C)(F)F)NC(=O)[C@@H]1[C@H]2CCC[C@H]2CN1C(=O)[C@@H](NC(=O)OC)C(C)(C)C    > 30 µM
2) COC(=O)N[C@H](C(=O)N1CC2(CCCCC2)C[C@H]1C(=O)N[C@@H](CCC(C)(F)F)C(=O)C(=O)NCc1ccncc1)C(C)(C)C    > 30 µM
3) COC(=O)N[C@H](C(=O)N1CC2(CCCCC2)C[C@H]1C(=O)N[C@@H](CCC(C)(F)F)C(=O)C(N)=O)C(C)(C)C    > 30 µM
